- system-name: FGFR1 (SEQ ID NO: 1, amino acids 458-765) (Homo sapiens (Human))
- Sequence (P11362 458-765): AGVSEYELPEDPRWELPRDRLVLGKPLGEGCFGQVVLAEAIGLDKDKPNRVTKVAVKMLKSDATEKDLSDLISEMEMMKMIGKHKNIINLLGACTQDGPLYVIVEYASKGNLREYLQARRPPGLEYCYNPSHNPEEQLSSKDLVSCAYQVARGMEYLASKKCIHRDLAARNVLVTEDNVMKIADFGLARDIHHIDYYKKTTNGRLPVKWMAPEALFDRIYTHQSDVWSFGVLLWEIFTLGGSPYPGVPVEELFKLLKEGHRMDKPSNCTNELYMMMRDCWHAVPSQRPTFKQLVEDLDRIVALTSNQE
- assay-remarks: LC/MS FGFR1 kobs assay (covalent protein modification)
- Type: binding
- assay-setup: 500 nM FGFR1, 3 μM compound
- Description: The LC/MS FGFR1 and FGFR3 kobs assays were conducted as follows. […] At each time point, the reaction was quenched with 20 μL of 0.4% formic acid. The extent of protein modification by each compound was determined by LC/MS on an Agilent Technologies 6520 Q-TOF LC/MS. […] Data analysis included five steps. First, the signals for the “DMSO Controls” were analyzed to determine the percent of signal associated with unmodified FGFR1 or FGFR3 at each time point. […]
property-measured: FGFR1 Enz kobs (min⁻¹)

> print(dat)
                                   molecule                               system.name  observed.value
1  C=CC(=O)N1CC[C@@H](C(=O)N2CCN(c3ccc(-c4cc(OC)c5c(C#N)cnn5c4)cn3)CC2)C1  FGFR1 (SEQ ID NO: 1, amino acids 458-765) (Homo sapiens (Human))         0.00068
2  C=CC(=O)N1CC(C(=O)N2CCC(n3cc(-c4cc(OC5CCC5)c5c(C#N)cnn5c4)cn3)CC2)C1  FGFR1 (SEQ ID NO: 1, amino acids 458-765) (Homo sapiens (Human))         0.00246
3  C=CC(=O)N1CC(C(=O)N2CCN(c3ccc(-c4cc(OC)c5c(C#N)cnn5c4)cc3)CC2)C1  FGFR1 (SEQ ID NO: 1, amino acids 458-765) (Homo sapiens (Human))          0.0025
4  C=CC(=O)N1CC(C(=O)N2CCN(c3ncc(-c4cc(OC)c5c(C#N)cnn5c4)cn3)CC2)C1  FGFR1 (SEQ ID NO: 1, amino acids 458-765) (Homo sapiens (Human))         0.00274
5  COc1cc(-c2cnn(C3CCN(C(=O)C4CN(C(=O)/C=C/CCl)C4)CC3)c2)cn2ncc(C#N)c12  FGFR1 (SEQ ID NO: 1, amino acids 458-765) (Homo sapiens (Human))         0.00249
6  C=CC(=O)N1CC(C(=O)N2C3CC2CN(c2ccc(-c4cc(OC)c5c(C#N)cnn5c4)cn2)C3)C1  FGFR1 (SEQ ID NO: 1, amino acids 458-765) (Homo sapiens (Human))         0.00086

[I] C=CC(=O)N1C[C@H]2CN(C(=O)N3CCC(n4cc(-c5cc(OC)c6c(C#N)cnn6c5)cn4)CC3)C[C@H]21
[II] COc1cc(-c2cnn(C3CCN(C(=O)C4(F)CN(C(=O)/C=C/CN(C)C)C4)CC3)c2C)cn2ncc(Cl)c12
[III] C=CC(=O)N1CC(C)(CN2CCC(n3ncc(-c4cc(OC)c5c(C#N)cnn5c4)c3C)CC2)C1
[IV] C=CC(=O)N1CC(C(=O)N2CC[C@@H](n3cc(-c4cc(OC)c5c(C#N)cnn5c4)cn3)C2)C1
[V] C=CS(=O)(=O)N[C@H]1CC[C@H](C(=O)N2CCC(n3cc(-c4cc(OC)c5c(C#N)cnn5c4)cn3)CC2)C1
Asked: // ranking: key=FGFR1 Enz kobs, reverse=True Your task in answering is to list the labels in the requested order.
Given back: II, V, III, IV, I

[I] COc1cc(-c2cnn(C3CCN(C(=O)C4CN(C(=O)/C=C/CN5CCOCC5)C4)CC3)c2)cn2ncc(C#N)c12
[II] C=CC(=O)N1CC(C(=O)N2CCC(n3cc(-c4cc(C(C)C)c5c(C#N)cnn5c4)cn3)CC2)C1
Asked: Hey, which is lower on measured FGFR1 Enz kobs, I or II ? Indicate which entry you chose by stating its label.
Given back: I
(I: 0.00043 min⁻¹, II: 0.00148 min⁻¹)

[1] C=CC(=O)N1CC(C(=O)N2CCC(n3cc(-c4cc(OC)c5c(C#N)cnn5c4)cn3)CC2)C1(C)C (centres unmarked)
[2] COC/C=C/C(=O)N1CC(F)(C(=O)N2CCC(n3ncc(-c4cc(OC)c5c(C#N)cnn5c4)c3C)CC2)C1
[3] C=CC(=O)N1CC(F)(C(=O)N2CCN(c3ccc(-c4cc(OC)c5c(C#N)cnn5c4)cn3)CC2)C1
[4] C=CC(=O)Nc1ccc(C(=O)N2CC[C@@H](n3cc(-c4cc(OC)c5c(C#N)cnn5c4)cn3)C2)cc1
[5] C=CC(=O)Nc1cccc(C(=O)N2CC[C@@H](n3cc(-c4cc(OC)c5c(C#N)cnn5c4)cn3)C2)c1
Asked: // ranking: key=FGFR1 Enz kobs, reverse=True Your task in answering is to list the labels in the requested order.
Given back: 3, 4, 5, 2, 1

[P] C=CC(=O)N1CCC[C@H](C(=O)N2CC[C@H](n3cc(-c4cc(OC)c5c(C#N)cnn5c4)cn3)C2)C1
[Q] C=CC(=O)N1CC(CN2CCC(n3ncc(-c4cc(OC)c5c(C#N)cnn5c4)c3C)CC2)(OC)C1
[R] COc1cc(-c2cnn(C3CCN(C(=O)C4(F)CN(C(=O)/C=C/CN(C)C)C4)CC3)c2C)cn2ncc(C#N)c12
[S] C=CC(=O)N1CC(CN2CC(n3ncc(-c4cc(OC)c5c(C#N)cnn5c4)c3C)C2)C1
Asked: // ranking: key=FGFR1 Enz kobs, reverse=True Your task in answering is to list the labels in the requested order.
Given back: R, Q, S, P
